CYP74D1 (Solanum lycopersicum, UniProt Q9FPM6) metabolism by extracts containing 6H-CYP74D (in words) data
Sequence (Q9FPM6 10-478 limits assumed): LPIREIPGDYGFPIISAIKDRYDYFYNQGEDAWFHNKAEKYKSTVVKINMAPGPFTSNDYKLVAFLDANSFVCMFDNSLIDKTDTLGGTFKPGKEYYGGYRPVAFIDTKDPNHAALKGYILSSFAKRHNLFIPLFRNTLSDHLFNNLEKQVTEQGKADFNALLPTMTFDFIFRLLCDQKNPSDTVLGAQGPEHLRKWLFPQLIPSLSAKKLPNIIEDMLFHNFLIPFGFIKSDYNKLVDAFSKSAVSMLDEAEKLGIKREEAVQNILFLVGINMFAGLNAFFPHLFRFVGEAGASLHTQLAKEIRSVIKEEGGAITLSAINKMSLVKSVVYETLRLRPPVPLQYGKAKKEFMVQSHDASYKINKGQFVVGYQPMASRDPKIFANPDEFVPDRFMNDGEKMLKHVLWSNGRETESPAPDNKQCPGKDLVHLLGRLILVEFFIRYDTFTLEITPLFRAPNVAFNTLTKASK
Parameter: metabolism by extracts containing 6H-CYP74D (in words)

- Molecule: "CC/C=C\\C[C@@H](/C=C/C=C\\CCCCCCCC(=O)O)OO [13-HPOT]"
  Target Or System: "CYP74D1 (Solanum lycopersicum, UniProt Q9FPM6)"
  Measured Result: "poor substrates"
- Molecule: "CCCCC/C=C\\C=C\\[C@H](CCCCCCCC(=O)O)OO [9-HPOD]"
  Target Or System: "CYP74D1 (Solanum lycopersicum, UniProt Q9FPM6)"
  Measured Result: "efficiently metabolized"
- Molecule: "CC/C=C\\C/C=C\\C=C\\[C@H](CCCCCCCC(=O)O)OO [9-HPOT]"
  Target Or System: "CYP74D1 (Solanum lycopersicum, UniProt Q9FPM6)"
  Measured Result: "efficiently metabolized"
- Molecule: "CCCCC[C@@H](/C=C/C=C\\CCCCCCCC(=O)O)OO [13-HPOD]"
  Target Or System: "CYP74D1 (Solanum lycopersicum, UniProt Q9FPM6)"
  Measured Result: "poor substrates"
